Source: paper doi:10.1101/2024.09.17.613365

molecular target: leucine-rich repeat kinase 2 (LRRK2) (Homo sapiens); construct: LRRK2^RCKW (ROC, COR, Kinase, WD40); test: PhosphoSense kinase activity assay; DSF ΔTm […] K on LRRK2^KW; type: biochemical
Sequence (Q5S007 1327-2527 limits assumed): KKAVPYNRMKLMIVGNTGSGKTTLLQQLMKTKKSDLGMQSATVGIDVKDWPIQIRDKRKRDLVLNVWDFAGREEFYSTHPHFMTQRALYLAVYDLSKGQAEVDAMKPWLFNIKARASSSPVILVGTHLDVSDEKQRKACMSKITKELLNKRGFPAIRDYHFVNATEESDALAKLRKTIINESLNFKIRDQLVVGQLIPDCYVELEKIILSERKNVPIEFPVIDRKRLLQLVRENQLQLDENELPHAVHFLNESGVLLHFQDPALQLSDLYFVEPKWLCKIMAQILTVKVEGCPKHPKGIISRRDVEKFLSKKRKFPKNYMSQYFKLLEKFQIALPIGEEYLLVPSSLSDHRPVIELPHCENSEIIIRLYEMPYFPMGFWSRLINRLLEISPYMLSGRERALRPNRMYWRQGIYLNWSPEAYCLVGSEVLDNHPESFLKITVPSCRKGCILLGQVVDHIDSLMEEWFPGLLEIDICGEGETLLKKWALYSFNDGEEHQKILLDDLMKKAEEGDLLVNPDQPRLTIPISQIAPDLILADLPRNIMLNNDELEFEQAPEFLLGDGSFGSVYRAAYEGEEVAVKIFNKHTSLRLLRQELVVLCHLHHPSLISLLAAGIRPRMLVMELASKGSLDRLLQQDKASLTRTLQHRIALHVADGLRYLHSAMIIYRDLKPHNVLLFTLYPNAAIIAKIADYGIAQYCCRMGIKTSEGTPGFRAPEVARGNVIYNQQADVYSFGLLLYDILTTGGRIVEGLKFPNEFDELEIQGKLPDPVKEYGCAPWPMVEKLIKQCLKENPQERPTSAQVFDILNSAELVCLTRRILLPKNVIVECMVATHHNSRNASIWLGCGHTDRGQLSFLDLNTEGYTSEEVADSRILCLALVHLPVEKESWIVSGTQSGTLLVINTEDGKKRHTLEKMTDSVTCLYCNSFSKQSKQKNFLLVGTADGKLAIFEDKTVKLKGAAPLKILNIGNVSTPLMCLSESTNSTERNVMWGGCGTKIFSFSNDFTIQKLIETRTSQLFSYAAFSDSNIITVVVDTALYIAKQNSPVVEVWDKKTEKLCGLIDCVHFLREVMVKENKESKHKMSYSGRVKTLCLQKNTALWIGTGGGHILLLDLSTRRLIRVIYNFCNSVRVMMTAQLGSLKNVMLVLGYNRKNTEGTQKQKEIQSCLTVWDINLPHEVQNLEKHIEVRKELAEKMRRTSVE

| Chem Smiles | IC50 |
| --- | --- |
| Cc1cc(N(C(=O)C2(C(N)=O)CC2)c2cccc(-c3c[nH]c4ncnc(N5CCOCC5)c34)c2)ccc1F | 110 nM |
